Method description: protein stability index of a GFP-peptide fusion (yeast GPS) (PSI 1-4); higher = more stable; sorted into four equal gates, so the index is relative within each strain
Measurement conditions: doa10∆
Examples of sequences with documented protein stability index follow.
Please give the numeric answer without any surrounding text.

Take a look at these entries with their results.
>>> result_value("MSQYQSTMKENKDLSEL [YIL149C/MLP2]")
3
>>> result_value("IMAKRPFDKKSNSALFR [FAS1]")
2.84
>>> result_value("DGEGKVDSISLHKIFYK [YCG1]")
2.78
>>> result_value("LEIALFKYRKARLEPGT [RPO31]")
3.24

Ask: Any idea what protein stability index was measured for LIDSLPGVDVSAEEQLR [SRB7] ?
Result: 2.59

Ask: Any idea what protein stability index was measured for IKESSKKIKGKSIQDIV [SRP21] ?
Result: 3.26

Ask: Any idea what protein stability index was measured for EGTRNRFSYSPPKEGNY [YMR129W/POM152] ?
Result: 3.19

Ask: Any idea what protein stability index was measured for SVDLEKLAFGLTKLNED [TAF14] ?
Result: 3.54

Ask: Any idea what protein stability index was measured for YTYSSTLSHLRRTNTPI [RPB2] ?
Result: 2.06

###

Method description: protein stability index of a GFP-peptide fusion (yeast GPS) (PSI 1-4); higher = more stable; sorted into four equal gates, so the index is relative within each strain
Measurement conditions: san1∆
Field: class. Source value: protein stability index. Ranges: lo = under 2, mid = from 2 up to 3, hi = 3 and over

>>> assigned_category("TCSCCKKTVAGGAYTVS [RPL43A]")
"lo"
>>> assigned_category("PDKDYLLSIPISCPLIG [FAS1]")
"lo"
>>> assigned_category("SAIEHTTLKSVTIASEI [RPO21]")
"mid"
>>> assigned_category("GIEYNRVTNTTSTDFPG [RPC40]")
"mid"
>>> assigned_category("LLSKLLLKHPFKAIHGS [YCS4]")
"lo"
>>> assigned_category("AIALAVRLGEEDMIRSV [RPN1]")
"hi"
>>> assigned_category("QWRYLYDTQLKVSPEEL [ARP7]")
"mid"
>>> assigned_category("KQTAAYRTPGSSGVLSS [SSN2]")
"mid"
>>> assigned_category("TAMKKVEDGNILVFQVS [RPL25]")
"mid"
>>> assigned_category("TLVSTDNYFNLQLNEAE [SMX3]")
"mid"

Ask: Band assignment needed for DTLKDISTSFCFICLLH [BRN1] please.
Result: mid

Ask: Band assignment needed for HASKAIGLPRHSLAYLL [RRP6] please.
Result: mid

Ask: Band assignment needed for VQDCRYSLASVTLKGAK [POP1] please.
Result: mid

Ask: Band assignment needed for TGKYGVRYGSSLRRQVK [RPL43A] please.
Result: hi

Ask: Band assignment needed for DADEKSSNLYETIIEAD [YJR042W/NUP85] please.
Result: mid

Ask: Band assignment needed for LWNLNAYRTDVIQALGG [PRP8] please.
Result: lo

Ask: Band assignment needed for FDHNDKKLSINSAARNI [PRE7] please.
Result: mid

Ask: Band assignment needed for CSFITQDKMFVSNPIRK [FAS1] please.
Result: lo

Ask: Band assignment needed for LNYTVINFKSREAIRPG [AAR2] please.
Result: hi

Ask: Band assignment needed for ETEFPPFREFLQVLIDQ [ECM29] please.
Result: hi

Ask: Band assignment needed for EMKTQAAELQEKPLTPL [SNF6] please.
Result: mid

Ask: Band assignment needed for AYKFEEVSKDLIAVYYS [RPB8] please.
Result: hi

Ask: Band assignment needed for LFDTYHASKAIGLPRHS [RRP6] please.
Result: mid

Ask: Band assignment needed for VSNLMGRNIGHPIIQDK [RPB3] please.
Result: hi

###

Method description: protein stability index of a GFP-peptide fusion (yeast GPS) (PSI 1-4); higher = more stable; sorted into four equal gates, so the index is relative within each strain
Measurement conditions: pdr5∆
The threshold is inclusive: protein stability index of exactly 3 counts as yes; values below receive no.

Reference set, count: 3
>>> assigned_category("QQENSKSGKRKPNIILD [RPC31]")
"no"
>>> assigned_category("LCRQGHNMLNLLIHRKG [PRP8]")
"no"
>>> assigned_category("LGCTLVTLLANVRALYM [RMP1]")
"no"

Ask: Assess whether reported protein stability index for DTAVKTAETGYIQRRLV [RPO21] sits at 3 or higher.
Result: no

Ask: Assess whether reported protein stability index for VDKALIAEIKKTPLLKQ [RPL6A] sits at 3 or higher.
Result: no

Ask: Assess whether reported protein stability index for LNDHIDDFEVNVASLVR [GRR1] sits at 3 or higher.
Result: yes

Ask: Assess whether reported protein stability index for NINNSSVAEKEEIRSQI [SWI3] sits at 3 or higher.
Result: no

Ask: Assess whether reported protein stability index for MNGNSTNNEQLQQELAT [NUT2] sits at 3 or higher.
Result: yes

Ask: Assess whether reported protein stability index for LSTRAGGLGLNLQTADT [SNF2] sits at 3 or higher.
Result: no

Ask: Assess whether reported protein stability index for YSLEAIKLGSTAIGIAT [PUP2] sits at 3 or higher.
Result: no

Ask: Assess whether reported protein stability index for DSSSNTYRSRAQQVPPY [SIN4] sits at 3 or higher.
Result: no

Ask: Assess whether reported protein stability index for IQEYQLCDNFNHFSLSY [COR1] sits at 3 or higher.
Result: no

###

Method description: protein stability index of a GFP-peptide fusion (yeast GPS) (PSI 1-4); higher = more stable; sorted into four equal gates, so the index is relative within each strain
Measurement conditions: doa10∆
Field: class. Source value: protein stability index. Ranges: band 1 (below 2), band 2 (2 to below 3), band 3 (3 or more)

>>> assigned_category("RHNKSHTLCNRCGRRSF [RPL37A]")
"band 3"

Ask: Band assignment needed for IGDDGYDLLISTLTTIS [SRB5] please.
Result: band 2

Ask: Band assignment needed for LEEVEGSCTGKFGYILC [RPB7] please.
Result: band 2

Ask: Band assignment needed for SENAPSASSKEFNFTNL [YAR002W/NUP60] please.
Result: band 2

Ask: Band assignment needed for SYTAFSRLTLLLRALKT [PRP8] please.
Result: band 1

Ask: Band assignment needed for TPPDDLHPYVPSSKPQE [SRB8] please.
Result: band 2

Ask: Band assignment needed for NKQPRNESFNRRISSMP [YAR002W/NUP60] please.
Result: band 2

Ask: Band assignment needed for TIRYLMQKQHEMKTQAA [SNF6] please.
Result: band 2

###

Method description: protein stability index of a GFP-peptide fusion (yeast GPS) (PSI 1-4); higher = more stable; sorted into four equal gates, so the index is relative within each strain
Measurement conditions: ubr1∆
Measure name: protein stability index
Please give the numeric answer without any surrounding text.

Take a look at these entries with their results.
>>> result_value("PKNFGIGQAVQPKRNLS [RPL8A]")
2.69
>>> result_value("TLNPDLFLYKELVKAHL [RPC82]")
2.42

Ask: Any idea what protein stability index was measured for CVVSTDSTNLSDDAAQF [ECM29] ?
Result: 3.04

Ask: Any idea what protein stability index was measured for NSDKPRDVYVFDKVEVQ [DIS3] ?
Result: 3

Ask: Any idea what protein stability index was measured for LEEVEGSCTGKFGYILC [RPB7] ?
Result: 2.21

Ask: Any idea what protein stability index was measured for CVYVPNFNASLQLTTNT [SNM1] ?
Result: 2.02

Ask: Any idea what protein stability index was measured for SFAKLVPCEGKDVTQGL [SMC2] ?
Result: 1.86

###

Method description: protein stability index of a GFP-peptide fusion (yeast GPS) (PSI 1-4); higher = more stable; sorted into four equal gates, so the index is relative within each strain
Measurement conditions: san1∆
Measure name: protein stability index
Please give the numeric answer without any surrounding text.

>>> result_value("NANTVFSERAAMFAALQ [SWI1]")
2.4
>>> result_value("VEDDLVTVQTELNEEKK [SMC2]")
2.55
>>> result_value("TVMFFYHNKHMMCDFGT [DIB1]")
2.6
>>> result_value("PEMSNLYRLSTPLRDEV [PRP8]")
2.56
>>> result_value("HAYRDVLAQYHEAKERI [SNF6]")
3.09
>>> result_value("DTTVPKRLGPKRANNIR [RPS6A]")
3.19
>>> result_value("NNNGLPQNGNINNNINI [GAL11]")
3.39
>>> result_value("FPVDPTTPVKLGPGIYC [RRP40]")
2.4

Ask: Any idea what protein stability index was measured for HFQDQKNKKIEVYTKTI [POP7] ?
Result: 3.23

Ask: Any idea what protein stability index was measured for SASFSLKNGDKPHMLKF [RPL6A] ?
Result: 2.89

Ask: Any idea what protein stability index was measured for NEVIDKLKNENTDLKDI [PCI8] ?
Result: 3.01

Ask: Any idea what protein stability index was measured for FESLPLKSAENSGKQQY [SWP82] ?
Result: 3.01

Ask: Any idea what protein stability index was measured for RNSYPASFYSVNTEKKT [RPN3] ?
Result: 2.82

Ask: Any idea what protein stability index was measured for VSSESSDEAIIPVNKRR [SIR3] ?
Result: 3.02

Ask: Any idea what protein stability index was measured for NNTHVGRQFCNRLSRIH [YLR018C/POM34] ?
Result: 2.3
